assay notes: Lipophilicity, log D of the compound at pH 7.4
Type: physicochemical
test context: buffer
measure name: logD
Note: the reply should be a number with no unit written.

smiles structure | logD
O=C(O)CC[C@H](NC(=O)N[C@@H](CCCCNC(=O)Cn1cc([123I])nn1)C(=O)O)C(=O)O | -3.23

Need logD of `O=C(O)Cn1cc([123I])nn1` , thanks. -2.58

Need logD of `O=C(O)c1ccc(I)cc1` , thanks. 0.07

====

assay notes: Drug uptake in NCr nude mouse tumor xenografted with human LNCAP cells measured 1 hr post injection in presence of PSMA inhibition PMPA
Assay type: ADME, Neoplasm
test context: tumor (human LNCaP xenograft), with PMPA (PSMA inhibitor), amount not stated, read-out: Drug uptake
measure name: tissue uptake at 1 h

Need tissue uptake at 1 h of `O=C(O)CC[C@H](NC(=O)N[C@@H](CCCCNC(=O)Cn1cc([123I])nn1)C(=O)O)C(=O)O` , thanks. < 2 %ID/g
